experimental_target: α-1d adrenoreceptor (rat) (Rattus norvegicus, UniProt P23944)
Construct: expressed in transfected cells; cDNA from TULCO; membranes
Sequence (P23944 whole entry): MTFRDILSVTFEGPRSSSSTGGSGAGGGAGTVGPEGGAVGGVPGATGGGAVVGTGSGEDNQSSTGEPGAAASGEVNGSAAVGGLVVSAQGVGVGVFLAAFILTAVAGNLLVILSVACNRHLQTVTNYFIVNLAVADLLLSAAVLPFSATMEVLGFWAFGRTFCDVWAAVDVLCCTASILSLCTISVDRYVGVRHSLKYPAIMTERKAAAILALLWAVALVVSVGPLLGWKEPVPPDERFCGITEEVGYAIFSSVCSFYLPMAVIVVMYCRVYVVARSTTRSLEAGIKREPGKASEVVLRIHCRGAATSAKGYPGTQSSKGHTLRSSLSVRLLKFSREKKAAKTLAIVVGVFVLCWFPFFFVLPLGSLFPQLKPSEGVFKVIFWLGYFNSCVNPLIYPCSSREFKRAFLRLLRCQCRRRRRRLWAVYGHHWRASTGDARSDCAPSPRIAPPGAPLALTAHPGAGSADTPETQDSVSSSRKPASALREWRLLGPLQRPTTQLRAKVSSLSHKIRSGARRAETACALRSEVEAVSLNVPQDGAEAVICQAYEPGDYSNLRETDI
assay_procedure: In vitro [3H]-prazosin radioligand binding, cloned α-1d adrenoreceptor expressed in LTK cells
applied_conditions: cloned rat α-1d in LTK cells, [3H]prazosin 0.2 nM; read-out: Radioligand Binding (Ki; nM) 1d (Rat)
Where a name gives a salt, the structure may show the parent alone.
result_type: Ki (nM)

COc1ccc2c(n1)sc1c(=O)n(CCCCN3C[C@@H]4COc5cccc(OC)c5[C@@H]4C3)c(=O)[nH]c12 [Example 33, hydrochloride] :: 0.701
COc1cc2[nH]c(=O)n(CCN3CC[C@H]4c5c(OC)cccc5OC[C@@H]4C3)c(=O)c2cc1OC (relative stereo) [Example 91, hydrochloride] :: 0.495

---

experimental_target: α-1a adrenoreceptor (bovine) (Bos taurus)
Construct: expressed in transfected cells; cDNA from TULCO; membranes
Sequence (P18130 whole entry): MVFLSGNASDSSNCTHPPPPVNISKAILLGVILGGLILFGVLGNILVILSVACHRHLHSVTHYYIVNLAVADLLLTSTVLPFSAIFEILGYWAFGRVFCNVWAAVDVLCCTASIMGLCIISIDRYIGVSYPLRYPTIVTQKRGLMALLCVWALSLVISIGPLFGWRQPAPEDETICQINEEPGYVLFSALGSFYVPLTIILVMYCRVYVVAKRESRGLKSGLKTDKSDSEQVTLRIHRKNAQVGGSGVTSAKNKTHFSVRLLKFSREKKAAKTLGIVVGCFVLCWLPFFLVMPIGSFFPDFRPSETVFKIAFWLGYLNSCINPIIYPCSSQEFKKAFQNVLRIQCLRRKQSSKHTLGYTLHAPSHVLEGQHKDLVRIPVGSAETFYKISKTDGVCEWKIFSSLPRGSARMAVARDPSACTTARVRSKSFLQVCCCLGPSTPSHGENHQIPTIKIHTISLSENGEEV
assay_procedure: In vitro [3H]-prazosin radioligand binding, cloned α-1a adrenoreceptor expressed in LTK cells
applied_conditions: cloned bovine α-1a in LTK cells, [3H]prazosin 0.2 nM; read-out: Radioligand Binding (Ki; nM) 1a (Bovine)
Structures can show the parent of a compound that is named as a salt.
result_type: Ki (nM)

COc1ccc2c(n1)sc1c(=O)n(CCCCN3C[C@@H]4COc5cccc(OC)c5[C@@H]4C3)c(=O)[nH]c12 [Example 33, hydrochloride] :: 0.082
COc1cc2[nH]c(=O)n(CCN3CC[C@H]4c5c(OC)cccc5OC[C@@H]4C3)c(=O)c2cc1OC (relative stereo) [Example 91, hydrochloride] :: 0.066

---

experimental_target: α-1b adrenoreceptor (hamster) (Mesocricetus auratus, UniProt P18841)
Construct: expressed in transfected cells; cDNA from TULCO; membranes
Sequence (P18841 whole entry): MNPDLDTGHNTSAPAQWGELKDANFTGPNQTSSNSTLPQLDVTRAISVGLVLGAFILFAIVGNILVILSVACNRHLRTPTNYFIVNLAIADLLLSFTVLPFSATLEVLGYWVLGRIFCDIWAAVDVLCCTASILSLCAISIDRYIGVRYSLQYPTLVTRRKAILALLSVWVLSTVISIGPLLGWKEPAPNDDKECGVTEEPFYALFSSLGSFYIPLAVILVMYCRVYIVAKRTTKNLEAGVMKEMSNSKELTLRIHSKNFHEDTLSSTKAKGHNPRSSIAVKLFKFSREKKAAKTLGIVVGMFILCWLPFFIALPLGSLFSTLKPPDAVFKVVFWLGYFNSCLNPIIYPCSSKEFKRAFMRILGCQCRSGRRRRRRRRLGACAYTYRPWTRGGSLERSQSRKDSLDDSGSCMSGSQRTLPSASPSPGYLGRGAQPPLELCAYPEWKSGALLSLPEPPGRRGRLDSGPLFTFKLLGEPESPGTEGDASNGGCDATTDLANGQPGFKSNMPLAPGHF
assay_procedure: In vitro [3H]-prazosin radioligand binding, cloned α-1b adrenoreceptor expressed in LTK cells
Where a name gives a salt, the structure may show the parent alone.
Measured Ki values are reported for all entries that follow.
Answer format: numeric, nM implied, no suffix.

Name the recorded Ki of the item COc1cccc2c1[C@@H]1CCN(CCCn3c(=O)[nH]c4c(sc5ccccc54)c3=O)C[C@H]1CO2 (relative stereo) [Example 89, hydrochloride] in your answer.
0.111

Name the recorded Ki of the item COc1cccc2c1[C@@H]1CCN(CCCn3c(=O)[nH]c4c(sc5ncccc54)c3=O)C[C@H]1CO2 (relative stereo) [Example 84, hydrochloride] in your answer.
4.92

Name the recorded Ki of the item COc1cccc2c1[C@@H]1CCN(CCCCn3c(=O)[nH]c4c(sc5cccnc54)c3=O)C[C@H]1CO2 (relative stereo) [Example 88, hydrochloride] in your answer.
0.791

Name the recorded Ki of the item COc1cc2[nH]c(=O)n(CCCCN3CC[C@H]4c5c(OC)cccc5OC[C@@H]4C3)c(=O)c2cc1OC (relative stereo) [Example 86, hydrochloride] in your answer.
1.71

Name the recorded Ki of the item COc1cccc2c1[C@@H]1CCN(CCn3c(=O)[nH]c4c(sc5ccccc54)c3=O)C[C@H]1CO2 (relative stereo) [Example 90, hydrochloride] in your answer.
2.29

Name the recorded Ki of the item COc1cccc2c1[C@@H]1CCN(CCCCn3c(=O)[nH]c4c(sc5ccccc54)c3=O)C[C@H]1CO2 (relative stereo) [Example 87, hydrochloride] in your answer.
2.86

Name the recorded Ki of the item COc1cc2[nH]c(=O)n(CCCCN3C[C@@H]4COc5cccc(OC)c5[C@H]4C3)c(=O)c2cc1OC (racemic) [Example 82, dihydrochloride] in your answer.
4.9
